- Measured target: ShaI/KChIP (Drosophila melanogaster)
- Construct: expressed in transfected cells; subclone 18-13-20
- Experimental details: ShaI/KChIP FLIPR membrane potential assay, KCl depolarization
- Format: cell-based
- Applied conditions: ShaI/KChIP 18-13 cells, isometrically-substituted KCl, fixed top response; read-out: EC50
Readout name: EC50 (mM)

>  <Compound>
[Cl-].[K+] [KCl, reference compound]

>  <Output unit>
mM

>  <Assay result>
30

$$$$

----------
# maps each entry to its inhibition at 10 µM
- Measured target: ShaI/KChIP (Drosophila melanogaster, UniProt P17971)
- Construct: expressed in transfected cells; subclone 18-13-20
- Sequence (P17971 with tags, fused parts or gaps isoform P17971-1): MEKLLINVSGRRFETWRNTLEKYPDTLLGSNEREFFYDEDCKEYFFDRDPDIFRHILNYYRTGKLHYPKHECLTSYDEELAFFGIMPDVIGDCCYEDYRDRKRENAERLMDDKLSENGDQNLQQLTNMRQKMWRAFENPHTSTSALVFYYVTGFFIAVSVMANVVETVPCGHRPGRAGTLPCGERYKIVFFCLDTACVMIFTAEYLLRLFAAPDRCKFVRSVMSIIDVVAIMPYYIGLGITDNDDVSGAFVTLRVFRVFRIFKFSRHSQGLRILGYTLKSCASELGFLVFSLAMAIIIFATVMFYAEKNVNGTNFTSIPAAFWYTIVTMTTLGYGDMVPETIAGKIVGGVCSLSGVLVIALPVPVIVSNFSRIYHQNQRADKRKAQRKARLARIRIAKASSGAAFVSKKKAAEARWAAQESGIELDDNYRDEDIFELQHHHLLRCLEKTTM
- Experimental details: ShaI/KChIP FLIPR membrane potential assay, KCl depolarization
- Type: cell-based

>  <Compound>
Cc1ccccc1C1(Cc2cccc(C#N)c2)C(=O)Nc2ccc(F)cc21 (centres unmarked)

>  <inhibition at 10 µM>
55.5%

$$$$
>  <Compound>
Cc1nc(CC2(c3ccccc3)C(=O)Nc3ccc(OC(F)(F)F)cc32)cs1 (centres unmarked)

>  <inhibition at 10 µM>
31.4%

$$$$
>  <Compound>
COc1ccc(Cl)cc1CC1(C)C(=O)Nc2ccc(F)cc21 (centres unmarked)

>  <inhibition at 10 µM>
32%

$$$$
>  <Compound>
Cc1noc(C)c1CC1(c2ccccc2)C(=O)Nc2ccc(OC(F)(F)F)cc21 (centres unmarked)

>  <inhibition at 10 µM>
50.4%

$$$$
>  <Compound>
Cc1c(C(=O)NCc2ccc([N+](=O)[O-])cc2)sc(=O)n1Cc1ccc(OC(F)(F)F)cc1

>  <inhibition at 10 µM>
30.2%

$$$$
